Tested on: MDA-N
protocol.description: NCI tumour cell line growth inhibition, 48 h
Calls of active or inactive are those of the source. Cut-off read from the data, not from the text of the source: active = GI50 up to about 1.1 µM and inactive = higher.
measurement.kind: GI50

> print(dat)
                                   compound               result
1  CC(=NNC(=S)Nc1ccc(C)cc1)c1cccc(C(C)=NNC(=S)Nc2ccc(C)cc2)n1   19.9 µM (inactive)
2  COC(=O)c1cc2c3c(c1)Oc1cc(C(=O)OC)cc4c1C3c1c(cc(C(=O)OC)cc1O4)O2   8.22 µM (inactive)
3  NC(Cc1ccccc1)c1nn[nH]n1 (centres undefined)  > 100 µM (inactive)
4  C[N+]1(C)[C@@H]2CC[C@H]1C[C@@H](OC(=O)C(CO)c1ccccc1)C2 (some centres undefined) [ATROPINE METHYLBROMIDE]  > 100 µM (inactive)
5  COc1ccc2cc1Oc1ccc(cc1)CC1c3c(cc(OC)c4c3Oc3cc5c(cc3O4)CCNC5C2)CCN1C (centres undefined)   1.83 µM (inactive)
6        N=c1oc2ccc(Cl)cc2cc1C(=O)Nc1ccccc1  > 100 µM (inactive)
7  CN(CCNC(=O)c1c[nH]c2c1ccc1ccccc12)CCNC(=O)c1c[nH]c2c1ccc1ccccc12   2.31 µM (inactive)
8  CCOC(=O)CSc1nnc(CSc2nc(-c3ccccc3)c(-c3ccccc3)[nH]2)n1-c1ccccc1   75.3 µM (inactive)
9  Cc1cnc2c(c1)C(=O)N(c1ccc(Br)cc1)S2(=O)=O  > 100 µM (inactive)

Ref: ChEMBL document CHEMBL1201862
